# Tested on: 556581-035-R-J1-PDC complex spheroid growth
# assay-remarks: Anticancer human tumor 556581-035-R-J1-PDC patient-derived ovarian carcinoma cell line growth inhibition [AhR]
# condition-context: curve of first compound; second compound 3.16 µM
# From the text: Multicellular complex tumor spheroid response to aryl hydrocarbon receptor antagonists in combination with a variety of drugs and investigational agents in selected tumor cell lines […] Compounds. […] If the clinical Cmax for an agent had not been determined, the highest concentration tested was 10 microM (Table 1). […]
measured-parameter: IC50

// below: answered molecules
- COc1cc(Nc2ncc3c(n2)-c2ccc(Cl)cc2C(c2c(F)cccc2OC)=NC3)ccc1C(=O)O + Cc1ccccc1N=Nc1ccc(NC(=O)c2ccnn2C)c(C)c1: > 10 µM
- CC1(C)CCC(CN2CCN(c3ccc(C(=O)NS(=O)(=O)c4ccc(NCC5CCOCC5)c([N+](=O)[O-])c4)c(Oc4cnc5[nH]ccc5c4)c3)CC2)=C(c2ccc(Cl)cc2)C1 + Cc1cncc(-c2nc(NCCc3c[nH]c4ccccc34)c3ncn(C(C)C)c3n2)c1: > 10 µM

// next entry
Problem: Please look up its IC50: CC1(C)CCC(CN2CCN(c3ccc(C(=O)NS(=O)(=O)c4ccc(NCC5CCOCC5)c([N+](=O)[O-])c4)c(Oc4cnc5[nH]ccc5c4)c3)CC2)=C(c2ccc(Cl)cc2)C1 + Cc1ccccc1N=Nc1ccc(NC(=O)c2ccnn2C)c(C)c1
Result: > 10 µM
